# TEST TARGET: PRKACA (human) (UniProt P17612)
# TEST: KINOMEscan competition binding
# TEST PARAMETERS: compound 10.0 µM
OBSERVATION TYPE: kinase still bound, per cent of control (%)

* CCN(CC)CCCCNc1ncc2c(n1)N(C)C(=O)N(c1c(Cl)c(OC)cc(OC)c1Cl)C2 | 100
* Cc1n[nH]c2ccc(-c3cncc(OC[C@@H](N)Cc4c[nH]c5ccccc45)c3)cc12 | 0.85
* O=c1cc(N2CCOCC2)oc2c(-c3cccc4c3sc3ccccc34)cccc12 | 87
* CNC(=O)c1ccc(Nc2cc(Nc3ccccc3S(=O)(=O)C(C)C)c3cc[nH]c3n2)nc1 | 100
* O=C1NC(=O)/C(=C/c2ccc3nccc(-c4ccncc4)c3c2)S1 | 35
* CNC(=O)c1cc(Oc2ccc(NC(=O)Nc3ccc(Cl)c(C(F)(F)F)c3)cc2)ccn1 | 63
* C=CC(=O)Nc1ccc(CN(C(=O)Nc2c(Cl)c(OC)cc(OC)c2Cl)c2cc(Nc3ccc(N4CCN(C)CC4)cc3)ncn2)cc1 | 100
* COc1ccc(N(C(=O)Oc2c(C)cccc2C)c2ccnc(Nc3ccc(N4CCN(C)CC4)cc3)n2)c(OC)c1 | 1.6
* N#CCNC(=O)c1ccc(-c2ccnc(Nc3ccc(N4CCOCC4)cc3)n2)cc1 | 96
* C[C@@H](Oc1cc(-c2cnn(C3CCNCC3)c2)cnc1N)c1c(Cl)ccc(F)c1Cl | 100
* C=CC(=O)Nc1cc(-n2c(=O)ccc3cnc4ccc(-c5cn[nH]c5)cc4c32)ccc1C | 100
* COc1cc2ncnc(-n3nc(-c4ccccn4)nc3N)c2cc1OC | 100
* NC(=O)Nc1cc(-c2cccc(F)c2)sc1C(=O)N[C@@H]1CCCNC1 | 1.4
